Molecular target: NADPH oxidase 5 (Homo sapiens)
Test: compounds shifting NOX5 Amplex Red fluorescence – cell-based, HEK293-NOX5, NOX inhibitor project, primary screen (AID 1161)
Details: HEK293-NOX5, ionomycin, 45 min, higher = more signal
Measured z-score, listed per entry for reference.

[
  {
    "COMPOUND": "NCCCCCCNC(=O)[C@@H]1C[C@@H]2C(=O)N3CCC[C@H]3C(=O)N2[C@@H]1c1cccc(OCCO)c1",
    "ASSAYED_TARGET": "NADPH oxidase 5 (Homo sapiens)",
    "z-score": 0.99
  },
  {
    "COMPOUND": "C=CCC(OC(C)=O)[C@@H]1[C@@H](N(Cc2ccc(-c3cccc(C(F)(F)F)c3)o2)C(=O)Cc2ccc(F)cc2)c2cc(OCCCO)ccc2N1C(=O)Cc1ccc2ccccc2c1 (some centres not stated)",
    "ASSAYED_TARGET": "NADPH oxidase 5 (Homo sapiens)",
    "z-score": 0.736
  },
  {
    "COMPOUND": "[N-]=[N+]=Nc1ccccc1C[C@@]1(C(=O)NCC(O)CO)N=C(c2ccc(OCCCO)cc2)O[C@@H]1c1ccccc1 (some centres not stated)",
    "ASSAYED_TARGET": "NADPH oxidase 5 (Homo sapiens)",
    "z-score": -0.946
  },
  {
    "COMPOUND": "COc1ccc([Si](C)(C)[C@H]2[C@H](CC(=O)N3Cc4ccccc4C[C@H]3CO)O[C@@]3(C(=O)N(C)c4c(Br)cc(C)cc43)[C@@H]2C)cc1",
    "ASSAYED_TARGET": "NADPH oxidase 5 (Homo sapiens)",
    "z-score": 0.136
  },
  {
    "COMPOUND": "O=C(NC1CC1)[C@@H]1c2ccccc2C(=O)N(Cc2ccc(OC(F)(F)F)cc2)[C@H]1c1ccc(CO)cc1",
    "ASSAYED_TARGET": "NADPH oxidase 5 (Homo sapiens)",
    "z-score": -0.523
  },
  {
    "COMPOUND": "N#Cc1ccc(-c2cccc(=O)o2)cc1",
    "ASSAYED_TARGET": "NADPH oxidase 5 (Homo sapiens)",
    "z-score": 0.172
  },
  {
    "COMPOUND": "CCOC(=O)C[C@H]1[C@H](OC(=O)c2cc3ccccc3oc2=O)[C@@H](NC(=O)CC(C)C)c2cc(OCCCO)ccc2N1C(=O)Cc1ccc(OC)cc1",
    "ASSAYED_TARGET": "NADPH oxidase 5 (Homo sapiens)",
    "z-score": 1.38
  }
]

---

Below, each entry is listed with its recorded z-score.
Experiment: hepatitis C replication reporter changes, two-sided – Huh7 cells, luciferase reporter, HCV replication inhibitor project, primary screen (AID 1109);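 further: huh7 hepatoma cells harbouring a luciferase neomycin HCV replicon reporter; luciferase luminescence as measure of HCV replicon replication; test concentration not given here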
Settings: Huh7 HCV replicon luciferase reporter, 48 h; higher = more signal

[
  {
    "COMPOUND": "C[N+](C)(C)CCCCNC(=O)[C@H]1C[C@H]2C(=O)N[C@@H](Cc3ccccc3)C(=O)N2[C@H]1c1cccc(OCCO)c1",
    "z-score": -0.741
  },
  {
    "COMPOUND": "O=C(NC1CC1)[C@@H]1c2ccccc2C(=O)N(Cc2ccc(OC(F)(F)F)cc2)[C@H]1c1ccc(CO)cc1",
    "z-score": -1.06
  },
  {
    "COMPOUND": "C=CCN1C(=O)[C@@]2(O[C@@H](CCn3cc([C@H](O)c4ccccc4)nn3)[C@H]([Si](C)(C)c3ccc(OC)cc3)[C@H]2C)c2cc(N3C(=O)c4cccc5cccc3c45)ccc21",
    "z-score": -3.74
  },
  {
    "COMPOUND": "O=C1O[C@H](c2ccccc2)[C@H](c2ccccc2)N2[C@H]1[C@@H](C(=O)N1CCN(c3ncccn3)CC1)[C@]1(C(=O)Nc3ccc(C#CCCO)cc31)[C@H]2c1ccc(O)cc1",
    "z-score": -1.38
  },
  {
    "COMPOUND": "COc1ccc([Si](C)(C)[C@H]2[C@H](CC(=O)N3Cc4ccccc4C[C@H]3CO)O[C@@]3(C(=O)N(C)c4c(Br)cc(C)cc43)[C@@H]2C)cc1",
    "z-score": -5.13
  },
  {
    "COMPOUND": "CN(C)CCCNC(=O)[C@@H]1c2ccccc2C(=O)N(Cc2ccccc2C(F)(F)F)[C@H]1c1ccc(CO)cc1",
    "z-score": -1.68
  },
  {
    "COMPOUND": "C=CC[C@@]1(C(=O)OC)N=C(c2ccc(OCCCO)cc2)O[C@@H]1c1ccccc1N=[N+]=[N-]",
    "z-score": -0.992
  },
  {
    "COMPOUND": "C[C@]1(C(=O)O)c2ccccc2C(=O)N(Cc2cc(F)cc(C(F)(F)F)c2)[C@H]1c1ccc(CO)cc1",
    "z-score": 0.475
  },
  {
    "COMPOUND": "Cc1ccc(S[C@]2(C(=O)NCCCN(C)C)CC(=O)N(Cc3ccccc3C(F)(F)F)[C@@H]2c2ccc(CO)cc2I)cc1",
    "z-score": -2.37
  },
  {
    "COMPOUND": "[N-]=[N+]=NCc1ccccc1[C@@H]1OC(c2ccc(OCCCO)cc2)=N[C@]1(Cc1ccccc1N=[N+]=[N-])C(=O)NCC(O)CO (some centres undefined)",
    "z-score": -1.41
  },
  {
    "COMPOUND": "C=CCOC(=O)[C@@H]1[C@H]2C(=O)O[C@H](c3ccccc3)[C@H](c3ccccc3)N2[C@H](c2ccc(OCCOC(=O)[C@H]3C[C@H]4C(=O)N[C@@H](CCCCN(C)C)C(=O)N4[C@H]3c3ccc(O)cc3)cc2)[C@@]12C(=O)Nc1ccc(I)cc12",
    "z-score": -3.31
  },
  {
    "COMPOUND": "O=C1O[C@H](Cc2ccccc2)[C@@H]2[C@H]3C=CCCC=C3CN2[C@H]1Cc1ccc(O)cc1",
    "z-score": -1.7
  },
  {
    "COMPOUND": "NCCCCCCNC(=O)[C@@H]1C[C@@H]2C(=O)N3CCC[C@H]3C(=O)N2[C@@H]1c1cccc(OCCO)c1",
    "z-score": 0.116
  },
  {
    "COMPOUND": "COc1ccc([Si](C)(C)[C@H]2[C@H](CC(=O)N3CCC[C@H]3CO)O[C@@]3(C(=O)N(Cc4ccc(N5CCCCC5=O)cc4)c4ccccc43)[C@@H]2C)cc1",
    "z-score": -1.46
  }
]
